System: PPARg homodimer (NR concentration 180 nM)
Assay: PBM binding z-score (relative to random genomic background probes); higher = stronger binding; sequences stand for … in GC…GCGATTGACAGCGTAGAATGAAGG
# maps each entry to its PBM binding z-score
In your answer, state the number alone without any accompanying words.

Known PBM binding z-score results, listed for orientation:
In [3]: df
Out[3]:
                     polymer_sequence                           measured_target  reported_value
0  CCGCGTAGGTTATGGGGCATTCAGGCAACGGTGA  PPARg homodimer (NR concentration 180 nM)           0.303
1  TGTCAAAGTTCCAAGGTAACGTAAGTATCCACAC  PPARg homodimer (NR concentration 180 nM)           0.137
2  AGTCAAAGTTAAGGACGAGGTAACGTAAAGCACG  PPARg homodimer (NR concentration 180 nM)          -0.757

Can you look up the measured PBM binding z-score of `TCATATAGGTAAACAGGTGAAAGTACGTAAGTTA` for me?
1.65
